system: PC-3 prostate; assay: NCI tumour cell line growth inhibition, 48 h; in the data active means GI50 below about 0.43 µM; inactive means the rest
Please answer using one outcome listed in active, inactive

## Task What was the test verdict on CCN(CC)CCNCC(=O)Oc1ccc(/C=C/C(=O)CC(=O)/C=C/c2ccc(OC(=O)CNCCN(CC)CC)c(OC)c2)cc1OC ?
## Result inactive

## Task Short answer needed: outcome of this test for COc1ccc(-n2cc(-c3ccc(Cl)c(Cl)c3)nc2SCc2cccc(C#N)c2)cc1 ?
## Result inactive

## Task Can you look up the reported call for Cc1cn2c(/C=C3/C(=O)Nc4ccccc43)c(-c3ccc(Cl)cc3)nc2s1 for me?
## Result inactive

## Task Record lookup: outcome of this test for CCN(CC)CCOc1ccc(/C(=C(\C)c2ccc(F)c(OC)c2)c2ccc(Cl)cc2)cc1 ?
## Result inactive

## Task What was the test verdict on Nc1nc(Br)nc2c1ncn2C1CC(O)C(CO)O1 (configuration not stated) ?
## Result inactive

## Task // return assay outcome for COC(=O)[C@@H](NC(=O)[C@@H](OC)[C@@H]1Cc2cc3cc(OC4CC(OC5CC(O)C(O)C(C)O5)C(O)C(C)O4)c(C)c(O)c3c(O)c2C(=O)[C@H]1OC1CC(OC2CC(OC3CC(C)(O)C(O)C(C)O3)C(O)C(C)O2)C(O)C(C)O1)C(C)C (some centres not stated)
## Result active

## Task Record request — test call for CCN(CC)CC(C)(C)C(=O)/C=C/c1ccc(Cl)c(Cl)c1
## Result inactive

## Task Hello, I am checking results. What call was entered for NC(=O)C(=CNc1nc(-c2ccc(Cl)c(Cl)c2)cs1)C(N)=O ?
## Result inactive

## Task How was Cc1ccc(N(CSc2ccc(Cl)cc2)CSc2ccc(Cl)cc2)cc1 classified in this test?
## Result inactive

## Task Give the logged outcome of this assay for the following compound: COc1cc2cn3c4ccc(O)cc4[nH]c(=O)c3c2cc1OC
## Result active

## Task Hi, sorry to bother you, what did the test record for COc1ccc(C2C(C#N)=C(N)OC3=C2COc2ccc(F)cc23)cc1OC (configuration not stated) ?
## Result inactive

## Task Give the logged outcome of this assay for the following compound: COc1ccc(/C=c2/sc3n(c2=O)C(c2ccc(OC)c(OC)c2)C2=C(N=3)c3cc(F)ccc3OC2)cc1 (configuration not stated)
## Result inactive

## Task Per the records of this test, what outcome belongs to CN(C)Cc1c[nH]c2c1C(=O)c1c(c(O)c3ccccc3c1O)C2=O ?
## Result inactive

## Task How was Cc1c[n+](Cc2ccc3ccccc3c2)cn1Cc1ccc2ccccc2c1 classified in this test?
## Result inactive

## Task Can you look up the reported call for CCCCCc1c(C)[nH]c(/C=C2\N=C(c3ccc[nH]3)C=C2CC)c1C for me?
## Result active

## Task Please share the test call associated with C#CC(=O)Nc1cccc(Nc2nc3c(c(NCc4ccccc4)n2)CCCC3)c1 .
## Result active

## Task Which outcome was assigned to CCN1C(=O)N(CC)C2C1NC(=S)N2/N=C/C=C/c1cccs1 (configuration not stated) in this test?
## Result active

---

Exercise: for every item that follows, state its recorded GI50.
test system: OVCAR-5 ovarian; assay: NCI tumour cell line growth inhibition, 48 h

## Task Any idea what its GI50 is? The compound is Cc1[nH][nH]c(=O)c1C=Nc1ccc(-c2nc3ccccc3[nH]2)cc1
## Result 46 µM

## Task Entry under review: Nc1nc(Br)nc2c1ncn2C1CC(O)C(CO)O1 (stereo unspecified) . Reported GI50?
## Result 90.8 µM

## Task Item Cc1[nH]n(-c2cccc(Cl)c2)c(=O)c1/C=C1\C=Nc2ccc(Br)cc21 has what recorded GI50?
## Result 3.1 µM

## Task Looking for the measured GI50 of NC1CCCC[C@H]1N.N[C@@H]1CCCC[C@@H]1N.O=C(P(=O)([O-])[O-])P(=O)([O-])[O-].[Pt+4].[Pt+4] , can you help?
## Result > 100 µM

## Task Param item = NC(=O)C(=CNc1nc(-c2ccc(Cl)c(Cl)c2)cs1)C(N)=O ; retrieve measured GI50.
## Result > 100 µM

## Task Any idea what GI50 was measured for COc1ccc(/C=c2/sc3n(c2=O)C(c2ccc(OC)c(OC)c2)C2=C(N=3)c3cc(F)ccc3OC2)cc1 (stereo unspecified) ?
## Result 52.8 µM

## Task Fill blank: measured GI50 of the compound CN(C)Cc1c[nH]c2c1C(=O)c1c(c(O)c3ccccc3c1O)C2=O is ____.
## Result 14.3 µM

## Task Please report the recorded GI50 for Cc1ccc(Nc2nc(N)c(C(=O)c3ccc(C#N)cc3)s2)cc1 .
## Result 2.98 µM

## Task Sample CC(=O)c1c(CBr)n([O-])c2ccccc2[n+]1=O — what was its GI50?
## Result 18.5 µM

## Task What does the data say about its GI50? Entry: COc1ccc(-c2cc(-c3cccn3C)c(C#N)c(N)n2)cc1OC
## Result > 100 µM

## Task # lookup: GI50 of C=C1C(=O)O[C@H]2[C@H]1[C@@H](OC(=O)C=C(C)C)CC1=C[C@@H](C[C@@]3(C)O[C@@H]23)OC1=O
## Result 30 µM

---

test system: SF-539 CNS; experiment: NCI tumour cell line growth inhibition, 48 h
measured parameter: TGI

## Task I would be grateful if you could share the reported TGI for CC(C)=CCS(=O)c1ccccc1NC1=CC(=O)CC(C)(C)C1 (configuration not stated) .
## Result > 100 µM

## Task What value of TGI has been recorded for this entry: Cc1cc(NC(=O)c2ccc(C)c(Nc3nccc(-c4cccnc4)n3)c2)cc(-n2cnc(C)c2)c1
## Result 9.27 µM

## Task Which TGI reading was recorded for the molecule CCN1C(=O)N(CC)C2C1NC(=S)N2/N=C/C=C/c1cccs1 (configuration not stated) ?
## Result 0.666 µM

## Task Give its TGI value. Item: Cc1ccc(C2CC(c3ccco3)=NN2c2ccccc2)o1 (configuration not stated)
## Result > 100 µM

## Task Entry CCN(CC)CC(C)(C)C(=O)/C=C/c1ccc(Cl)c(Cl)c1 has what TGI?
## Result 3.54 µM

## Task Tell me the measured TGI of COC(=O)c1ccc(/C=C2\N=C(C)OC2=O)cc1 , please.
## Result > 100 µM

## Task // returns reported TGI for input O=C(/C=C/c1ccccc1)/C=C/c1ccccc1
## Result 45 µM

---

What TGI was measured for each of the following?
test system: HOP-92 NSCLC; assay: NCI tumour cell line growth inhibition, 48 h

## Task Using the record for NC1CCCC[C@H]1N.N[C@@H]1CCCC[C@@H]1N.O=C(P(=O)([O-])[O-])P(=O)([O-])[O-].[Pt+4].[Pt+4] , report its TGI.
## Result > 100 µM

## Task Data request, read-out TGI, for O=c1[nH]c2cc(Cl)ccc2n1C1CCN(CCCC(c2ccc(F)cc2)c2ccc(F)cc2)CC1
## Result 2.41 µM

## Task Item under review: CCN(CC)/C(Cl)=C(Cl)\C(=C1\Nc2ccc(OC)cc21)[N+](=O)[O-] . Reported TGI?
## Result > 100 µM

## Task Given the molecule CC1=C(C(=O)Nc2c(C)cccc2C)C(c2ccccc2Cl)C(C(=O)Nc2c(C)cccc2C)=C(C)N1 , what is its reported TGI?
## Result > 100 µM

---

system: HT29 colon; assay: NCI tumour cell line growth inhibition, 48 h
measured parameter: TGI

## Task Reported TGI for COC(COC(=O)N1CCN(C=O)CC1)C1=C(N2CC2)C(=O)C(C)=C(N2CC2)C1=O (stereo not drawn) : what is it?
## Result 0.999 µM

## Task So what's the measured TGI for this one? C[C@]12CCC(=O)C=C1CC[C@@H]1C2CC[C@]2(C)c3nn(-c4ccc(F)cc4)nc3CC12 (stereo partly drawn)
## Result > 100 µM

## Task Data request, read-out TGI, for CCC1OC2C(CC=C(C)C)=C3OC(C)(O)C(C)(CC)C(OC(=O)c4ccccc4)C3=C3OC(=O)C=C1C32 (stereo not drawn)
## Result > 100 µM

## Task Suppose we examine the compound O=C(Nc1ccc(Cl)cc1F)c1cc(Br)ccc1O ; what TGI value has been reported?
## Result > 100 µM

## Task Sample C[C@H]1[C@H](C)CC[C@]2(C)CC[C@]3(C)C(=C[C@@H](O)[C@@H]4[C@@]5(C)[C@H](O)[C@@H](O)[C@H](O)C(C)(C)[C@@H]5CC[C@]43C)[C@H]12 — what was its TGI?
## Result > 100 µM

## Task Need TGI of CCCCN1C=CN2c3nc4cc(C)c(C)cc4n3C(C(=O)OC)=C(C(=O)OC)C12 (stereo not drawn) , thanks.
## Result > 100 µM

## Task Reported TGI, compound COc1cc(/C=C2\C(=O)Nc3ccc(F)cc32)cc(OC)c1OC : ____
## Result > 100 µM

## Task Given CCOC(=O)C1(C(=O)OCC)CN(CC)CN(c2ccccc2)C1 , state its recorded TGI.
## Result 37.8 µM

## Task Reported TGI for CC(C)=CCS(=O)c1ccccc1NC1=CC(=O)CC(C)(C)C1 (stereo not drawn) : what is it?
## Result > 100 µM

## Task For the compound shown here, COc1cccc(OC)c1/C=C1\OC(=O)c2cccc(OC)c21 , give the reported TGI.
## Result > 100 µM

## Task Need TGI, item COc1ccc(CCNC2=CC(=O)c3ncccc3C2=O)cc1OC
## Result 4.73 µM

## Task Given the compound CCN(CC)/C(Cl)=C(Cl)\C(=C1\Nc2ccc(OC)cc21)[N+](=O)[O-] , what is its reported TGI?
## Result > 100 µM

## Task What TGI value was documented for this compound, O=C(c1ccccc1)c1c(-c2ccccc2)[nH]n(-c2ccc([N+](=O)[O-])cc2)c(=O)c1=O ?
## Result > 100 µM

## Task # get_value(readout='TGI', item= CC(=O)c1c(CBr)n([O-])c2ccccc2[n+]1=O )
## Result 25.9 µM

## Task Could you tell me which TGI is on file for CC(C)(C)C(=O)/C=C/c1ccc(Oc2ccccc2)cc1 ?
## Result 25 µM

## Task If you can, please state the reported TGI value of NC(=O)C(=CNc1nc(-c2ccc(Cl)c(Cl)c2)cs1)C(N)=O .
## Result > 100 µM

## Task I'd like to know its TGI. The compound in question is O=C(CC(c1ccccc1)N1CCCCC1)c1ccccc1 (stereo not drawn)
## Result 29.5 µM

## Task Recorded TGI of N#C/C(=C\c1ccc(O)c(O)c1)C(N)=O , please.
## Result > 100 µM
